# Target Entity: T1, rhEphA5 antigen (Homo sapiens, UniProt P54756)
# T1 construct: purchased R and D systems 3036-A5
# Assay Comment: kd (1/s)
# Description: Table printed on a drawing sheet, FIG. 13 Head of the field: kd (1/s) The patent's description of the figure: FIG. 13 is a table illustrating the single cycle kinetic parameters of chimeric (VH0/VK0) and humanized 11C12 variants (tested as cell culture supernatants) binding to rhEphA5 antigen as determined using the Biacore T200. The relative KD was calculated by dividing the KD of the humanized variant by that of the VH0/VK0 (top row) assayed in the same experiment. […]
The entries below come with measured kd values attached.
Give just the number in s⁻¹; leave the unit off.

A selection of reference data follows.
VH5/VK1: humanized anti-EphA5 antibody, VH SEQ ID NO:6, VL SEQ ID NO:9 (antibody, V domains shown) VH: EVQLVESGGGLVQPGGSLKLSCAASGFTFSTFGIHWVRQAPGKGLEWVAYISGASTTIYYADSVKGRFTISRDNSKNTLYLQMNSLRAEDTAVYYCARYGTSFPYGLDYWGQGTLVTVSS VL: DIVMTQSPGSLAVSLGERATINCKASQSVDYDGDSYMNWYQQKPGKAPKLLIYGASNLESGIPDRFSGSGSGTDFTLTISRLEEEDAASYYCQQSNEDPFTFGQGTKLEIK | 0.00127
VH6/VK5: humanized anti-EphA5 antibody, VH SEQ ID NO:7, VL SEQ ID NO:13 (antibody, V domains shown) VH: EVQLVESGGGLVQPGGSLKLSCAASGFTFSTFGIHWVRQAPGKGLEWVASISGASTTIYYADSVKGRFTISRDNSKNTLYLQMNSLRAEDTAVYYCARYGTSFPYGLDYWGQGTLVTVSS VL: DIVMTQSPDSLAVSLGERATINCKSSQSVDYDGDSYMNWYQQKPGKAPKLLIYGASNLESGIPDRFSGSGSGTDFTLTISRLEPEDAAVYYCQQSNEDPFTFGQGTKLEIK | 0.285

stdin: May I ask what kd has been recorded for VH1/VK5: humanized anti-EphA5 antibody, VH SEQ ID NO:2, VL SEQ ID NO:13 (antibody, V domains shown) VH: EVTLVESGGGLVQPGGSRKLSCAASGFTFSTFGIHWVRQAPGKGLEWVAYISGASTTIYYADTVKGRFTISRDNSKNTLYLQMNSLRSEDTAMYYCARYGTSFPYGLDYWGQGTSVTVSS VL: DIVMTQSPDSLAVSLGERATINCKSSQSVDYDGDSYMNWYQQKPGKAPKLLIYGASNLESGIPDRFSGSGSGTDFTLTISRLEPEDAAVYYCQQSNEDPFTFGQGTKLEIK ?
stdout: 0.00139

stdin: Can you share its kd? I mean this molecule: VH3/VK3: humanized anti-EphA5 antibody, VH SEQ ID NO:4, VL SEQ ID NO:11 (antibody, V domains shown) VH: EVQLVESGGGLVQPGGSLKLSCAASGFTFSTFGIHWVRQAPGKGLEWVAYISGASTTIYYADTVKGRFTISRDNSKNTLYLQMNSLRSEDTAMYYCARYGTSFPYGLDYWGQGTLVTVSS VL: DIVMTQSPDSLAVSLGERATINCKASQSVDYDGDSYMNWYQQKPGKAPKLLIYGASNLESGIPDRFSGSGSGTDFTLTISRLEPEDAAVYYCQQSNEDPFTFGQGTKLEIK
stdout: 0.00133

stdin: Data request, read-out kd, for VH2/VK4: humanized anti-EphA5 antibody, VH SEQ ID NO:3, VL SEQ ID NO:12 (antibody, V domains shown) VH: EVTLVESGGGLVQPGGSLKLSCAASGFTFSTFGIHWVRQAPGKGLEWVAYISGASTTIYYADTVKGRFTISRDNSKNTLYLQMNSLRSEDTAMYYCARYGTSFPYGLDYWGQGTLVTVSS VL: DIVMTQSPDSLAVSLGERATINCKSSQSVDYDGDSYMNWYQQKPGKAPKLLIYGASNLESGIPDRFSGSGSGTDFTLTISRLEPEDAASYYCQQSNEDPFTFGQGTKLEIK
stdout: 0.00126

stdin: Quick check: kd of VH4/VK4: humanized anti-EphA5 antibody, VH SEQ ID NO:5, VL SEQ ID NO:12; lead variant (antibody, V domains shown) VH: EVQLVESGGGLVQPGGSLKLSCAASGFTFSTFGIHWVRQAPGKGLEWVAYISGASTTIYYADTVKGRFTISRDNSKNTLYLQMNSLRAEDTAVYYCARYGTSFPYGLDYWGQGTLVTVSS VL: DIVMTQSPDSLAVSLGERATINCKSSQSVDYDGDSYMNWYQQKPGKAPKLLIYGASNLESGIPDRFSGSGSGTDFTLTISRLEPEDAASYYCQQSNEDPFTFGQGTKLEIK ?
stdout: 0.0014

stdin: Given VH2/VK3: humanized anti-EphA5 antibody, VH SEQ ID NO:3, VL SEQ ID NO:11 (antibody, V domains shown) VH: EVTLVESGGGLVQPGGSLKLSCAASGFTFSTFGIHWVRQAPGKGLEWVAYISGASTTIYYADTVKGRFTISRDNSKNTLYLQMNSLRSEDTAMYYCARYGTSFPYGLDYWGQGTLVTVSS VL: DIVMTQSPDSLAVSLGERATINCKASQSVDYDGDSYMNWYQQKPGKAPKLLIYGASNLESGIPDRFSGSGSGTDFTLTISRLEPEDAAVYYCQQSNEDPFTFGQGTKLEIK , state its recorded kd.
stdout: 0.00132

stdin: Look at this molecule and give its reported kd. VH4/VK5: humanized anti-EphA5 antibody, VH SEQ ID NO:5, VL SEQ ID NO:13 (antibody, V domains shown) VH: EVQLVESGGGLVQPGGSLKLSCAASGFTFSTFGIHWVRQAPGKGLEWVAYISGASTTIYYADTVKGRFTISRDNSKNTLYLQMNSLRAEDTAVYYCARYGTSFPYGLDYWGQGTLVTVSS VL: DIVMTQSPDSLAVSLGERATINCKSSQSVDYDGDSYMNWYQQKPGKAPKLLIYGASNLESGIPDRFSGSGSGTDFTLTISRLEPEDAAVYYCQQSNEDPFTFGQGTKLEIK
stdout: 0.00137
